# Assay Summary: Tissue distribution of TET after a single i.t. administration in normal and LPS-treated mice
# Details: BALB/c, mouse, spleen, inhaled or intranasal, 15 mg/kg, t1/2, normal mice; 15 mg/kg i.t.
Readout Type: half-life (h)
Give just the number in h; leave the unit off.

Ask | Form field: reported half-life of COc1ccc2cc1Oc1ccc(cc1)C[C@H]1c3cc(c(OC)cc3CCN1C)Oc1c(OC)c(OC)cc3c1[C@H](C2)N(C)CC3 [TET, Tetrandrine]
Reply | 83.8

---

# Assay Summary: Tissue distribution of TET after a single i.t. administration in normal and LPS-treated mice
# Details: BALB/c, mouse, liver, other: intratracheal (i.t.), 15 mg/kg, Kp (AUC in tissue divided by AUC in blood), LPS-treated mice; 15 mg/kg i.t.; liver
Readout Type: Kp
Output spec: single numeric token, no unit.

Ask | Form field: reported Kp of COc1ccc2cc1Oc1ccc(cc1)C[C@H]1c3cc(c(OC)cc3CCN1C)Oc1c(OC)c(OC)cc3c1[C@H](C2)N(C)CC3 [TET, Tetrandrine]
Reply | 27

---

# Assay Summary: Tissue distribution of TET after a single i.t. administration in normal and LPS-treated mice
# Details: BALB/c, mouse, stomach, inhaled or intranasal, 15 mg/kg, Cmax, normal mice; 15 mg/kg i.t.
Readout Type: Cmax (ng/mL)
Give just the number in ng/mL; leave the unit off.

Ask | Form field: reported Cmax of COc1ccc2cc1Oc1ccc(cc1)C[C@H]1c3cc(c(OC)cc3CCN1C)Oc1c(OC)c(OC)cc3c1[C@H](C2)N(C)CC3 [TET, Tetrandrine]
Reply | 22300

---

# Assay Summary: Tissue distribution of TET after a single i.t. administration in normal and LPS-treated mice
# Details: BALB/c, mouse, adipose, inhaled or intranasal, 15 mg/kg, MRT, LPS-treated mice; 15 mg/kg i.t.
# Experimental: The different tissue distribution characteristics of TET in normal and pneumonia model mice via i.t. delivery were investigated. Thirty BALB/c mice were randomly divided into ten groups (n = 3 for each group). […] Pharmacokinetic parameters including t1/2, AUC(0-t), AUC(0-∞), and MRT were calculated using WinNonlin 7.0 (Pharsight, CA) by the non-compartmental model. […] Blood clearance (CL) was calculated as the i.v. dose divided by AUCinf. […]
Readout Type: MRT (h)
Give just the number in h; leave the unit off.

Ask | Form field: reported MRT of COc1ccc2cc1Oc1ccc(cc1)C[C@H]1c3cc(c(OC)cc3CCN1C)Oc1c(OC)c(OC)cc3c1[C@H](C2)N(C)CC3 [TET, Tetrandrine]
Reply | 102

---

# Assay Summary: in vitro
# Details: pig, LLC-PK1
Readout Type: efflux ratio at 2 h
Output spec: single numeric token, no unit.

Ask | Form field: reported efflux ratio at 2 h of `COc1ccc2cc1Oc1ccc(cc1)C[C@H]1c3cc(c(OC)cc3CCN1C)Oc1c(OC)c(OC)cc3c1[C@H](C2)N(C)CC3`
Reply | 3.13

---

# Assay Summary: Tissue distribution of TET after a single i.t. administration in normal and LPS-treated mice
# Details: BALB/c, mouse, liver, inhaled or intranasal, 15 mg/kg, MRT, LPS-treated mice; 15 mg/kg i.t.
# Protocol: The different tissue distribution characteristics of TET in normal and pneumonia model mice via i.t. delivery were investigated. Thirty BALB/c mice were randomly divided into ten groups (n = 3 for each group). […] Pharmacokinetic parameters including t1/2, AUC(0-t), AUC(0-∞), and MRT were calculated using WinNonlin 7.0 (Pharsight, CA) by the non-compartmental model. […] Blood clearance (CL) was calculated as the i.v. dose divided by AUCinf. […]
Readout Type: MRT
Report the figure along with its unit, number first.

Ask | Form field: reported MRT of `COc1ccc2cc1Oc1ccc(cc1)C[C@H]1c3cc(c(OC)cc3CCN1C)Oc1c(OC)c(OC)cc3c1[C@H](C2)N(C)CC3`
Reply | 82.1 h

---

# Assay Summary: Pharmacokinetics of TET in blood after a single i.v. administration in normal and LPS-induced ALI mice
# Details: male, BALB/c, mouse, in vivo, iv, 5 mg/kg, normal mice; 5 mg/kg i.v.; blood; read-out: MRT(0-t)
Readout Type: MRT last (h)
Give just the number in h; leave the unit off.

Ask | Form field: reported MRT last of `COc1ccc2cc1Oc1ccc(cc1)C[C@H]1c3cc(c(OC)cc3CCN1C)Oc1c(OC)c(OC)cc3c1[C@H](C2)N(C)CC3`
Reply | 72.7

---

# Assay Summary: Tissue distribution of TET after a single i.t. administration in normal and LPS-treated mice
# Details: BALB/c, mouse, heart, inhaled or intranasal, 15 mg/kg, AUC(0-t), LPS-treated mice; 15 mg/kg i.t.
Readout Type: AUC(0-t) (µg·h/mL)
Give just the number in µg·h/mL; leave the unit off.

Ask | Form field: reported AUC(0-t) of COc1ccc2cc1Oc1ccc(cc1)C[C@H]1c3cc(c(OC)cc3CCN1C)Oc1c(OC)c(OC)cc3c1[C@H](C2)N(C)CC3 [TET, Tetrandrine]
Reply | 940

---

# Assay Summary: Tissue distribution of TET after a single i.t. administration in normal and LPS-treated mice
# Details: BALB/c, mouse, intestine, other: intratracheal (i.t.), 15 mg/kg, Kp (AUC in tissue divided by AUC in blood), LPS-treated mice; 15 mg/kg i.t.; intestine
Readout Type: Kp
Output spec: single numeric token, no unit.

Ask | Form field: reported Kp of `COc1ccc2cc1Oc1ccc(cc1)C[C@H]1c3cc(c(OC)cc3CCN1C)Oc1c(OC)c(OC)cc3c1[C@H](C2)N(C)CC3`
Reply | 11

---

# Assay Summary: Pharmacokinetics of TET in blood after a single i.v. administration in normal and LPS-induced ALI mice
# Details: male, BALB/c, mouse, in vivo, iv, 5 mg/kg, normal mice; 5 mg/kg i.v.; blood
Readout Type: C0

Ask | Form field: reported C0 of `COc1ccc2cc1Oc1ccc(cc1)C[C@H]1c3cc(c(OC)cc3CCN1C)Oc1c(OC)c(OC)cc3c1[C@H](C2)N(C)CC3`
Reply | 2270 ng/mL

---

# Assay Summary: Tissue distribution of TET after a single i.t. administration in normal and LPS-treated mice
# Details: BALB/c, mouse, stomach, inhaled or intranasal, 15 mg/kg, AUC(0-t), LPS-treated mice; 15 mg/kg i.t.
Readout Type: AUC(0-t) (µg·h/mL)
Give just the number in µg·h/mL; leave the unit off.

Ask | Form field: reported AUC(0-t) of `COc1ccc2cc1Oc1ccc(cc1)C[C@H]1c3cc(c(OC)cc3CCN1C)Oc1c(OC)c(OC)cc3c1[C@H](C2)N(C)CC3`
Reply | 1340

---

# Assay Summary: Tissue distribution of TET after a single i.t. administration in normal and LPS-treated mice
# Details: BALB/c, mouse, intestine, inhaled or intranasal, 15 mg/kg, AUC(0-t), LPS-treated mice; 15 mg/kg i.t.
Readout Type: AUC(0-t) (µg·h/mL)
Give just the number in µg·h/mL; leave the unit off.

Ask | Form field: reported AUC(0-t) of `COc1ccc2cc1Oc1ccc(cc1)C[C@H]1c3cc(c(OC)cc3CCN1C)Oc1c(OC)c(OC)cc3c1[C@H](C2)N(C)CC3`
Reply | 2390

---

# Assay Summary: Tissue distribution of TET after a single i.t. administration in normal and LPS-treated mice
# Details: BALB/c, mouse, intestine, inhaled or intranasal, 15 mg/kg, Cmax, LPS-treated mice; 15 mg/kg i.t.
# Procedure: The different tissue distribution characteristics of TET in normal and pneumonia model mice via i.t. delivery were investigated. Thirty BALB/c mice were randomly divided into ten groups (n = 3 for each group). […] Pharmacokinetic parameters including t1/2, AUC(0-t), AUC(0-∞), and MRT were calculated using WinNonlin 7.0 (Pharsight, CA) by the non-compartmental model. […] Blood clearance (CL) was calculated as the i.v. dose divided by AUCinf. […]
Readout Type: Cmax (µg/mL)
Give just the number in µg/mL; leave the unit off.

Ask | Form field: reported Cmax of `COc1ccc2cc1Oc1ccc(cc1)C[C@H]1c3cc(c(OC)cc3CCN1C)Oc1c(OC)c(OC)cc3c1[C@H](C2)N(C)CC3`
Reply | 76.5

---

# Assay Summary: Tissue distribution of TET after a single i.t. administration in normal and LPS-treated mice
# Details: BALB/c, mouse, blood, inhaled or intranasal, 15 mg/kg, t1/2, LPS-treated mice; 15 mg/kg i.t.
Readout Type: half-life (h)
Give just the number in h; leave the unit off.

Ask | Form field: reported half-life of `COc1ccc2cc1Oc1ccc(cc1)C[C@H]1c3cc(c(OC)cc3CCN1C)Oc1c(OC)c(OC)cc3c1[C@H](C2)N(C)CC3`
Reply | 95.5

Taken from paper PMC9655037.
